# Test system: LXRa:RXRa (NR concentration 270 nM, RXRa partner concentration 90 nM)
# assay.comment: PBM binding z-score (relative to random genomic background probes); higher = stronger binding; sequences stand for … in GC…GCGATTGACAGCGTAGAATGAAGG
experimental.endpoint: PBM binding z-score
Number only, please.

Problem: Give its PBM binding z-score value. Item: "GGAACGAGGGCAAGCTGATAGCAGAGTTTGATGG"
Result: 0.065

Problem: Dear colleague, I am looking for the recorded PBM binding z-score of the following sequence: "TCTTGTAGATCAAGCAGGTCAAGAAAGCCTGAGT"
Result: 1.2

Problem: Report PBM binding z-score for "CGACCAAGGTCAGAGAGGTCAGTGAATGCCGAGT" please.
Result: 4.97

Problem: I'd like to know its PBM binding z-score. The sequence in question is "AGTCAAAGTTCAGGACGAGGTATCGTAAAGCACG"
Result: 3.83

Problem: What measured PBM binding z-score goes with "ATCTCTAGGTACGACTCAGTTCAGTGAAGAACGC" ?
Result: 0.42

Problem: Any idea what PBM binding z-score was measured for "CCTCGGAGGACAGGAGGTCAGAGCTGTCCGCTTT" ?
Result: 1.79

Problem: Need PBM binding z-score, item "CCAGACAGATGAAAGGTAACTCAGTCTGGTACGC"
Result: 0.0444

Problem: // query PBM binding z-score value for entry "ACAACGAGGGCAATGAGTTGATAGCACGGGTGGC"
Result: 0.0424

Problem: Using the record for "ACTAGCAGGCCAAGGGTCACTCATGATTAGTCCG" , report its PBM binding z-score.
Result: 2.25

Problem: Look up PBM binding z-score for this sequence: "CCTAGCAGGCCAATATGGGTCACTCAAGGCTTGA"
Result: 2.76

Problem: Any idea what PBM binding z-score was measured for "ACTAGTTGGTCAGCTGAGGTCACGCACAATTCGG" ?
Result: 3.8

Problem: Reported PBM binding z-score for "CAAACTAGGTCACAGAGGTCAAAGTGCGTGCGTA" : what is it?
Result: 6.76
